# PROTOCOL TEXT: Cytotoxicity against human PC3 cells assessed as reduction in cell viability measured after 72 hrs by MTT assay
# Format: functional
# TEST CONTEXT: PC-3, 72 h
PROPERTY: TGI

                   mol_smiles  recorded_value
0  [SeH]Cc1c2ccccc2nc2ccccc12        > 100 µM
1      N#CSCc1cc2c(cc1Br)OCO2         41.8 µM
2         C[Se]c1ccc2ccccc2n1        > 100 µM
3          [SeH]c1nc2ccccc2s1         > 50 µM
4   N#CSCc1c2ccccc2nc2ccccc12          2.4 µM
5       O=C1c2ccccc2C(=O)N1CS        > 100 µM
6          C[Se]c1nc2ccccc2s1        > 100 µM
7             Sc1ccc2ccccc2n1        > 100 µM

* * *

Some molecules, each annotated with its measured LC50 (concentration lethal to 50% of cells).
# PROTOCOL TEXT: Cytotoxicity against human PC3 cells assessed as reduction in cell viability measured after 72 hrs by MTT assay
# Format: functional
# TEST CONTEXT: PC-3, 72 h
PROPERTY: LC50 (concentration lethal to 50% of cells) (µM)

In [3]: df
Out[3]:
                      mol_smiles  unit_string  value_comparator  recorded_value
 0   N#C[Se]CN1C(=O)c2ccccc2C1=O           µM                 =            56.7
 1           Cc1noc(C)c1C[Se]C#N           µM                 =            17.6
 2    [SeH]Cc1c2ccccc2nc2ccccc12           µM                 >             100
 3            C[Se]c1nc2ccccc2s1           µM                 >             100
 4                    C[Se](=O)O           µM                 =            37.1
 5     N#C[Se]Cc1cc2c(cc1Br)OCO2           µM                 >             100
 6          [SeH]c1ccnc([SeH])n1           µM                 =            51.3
 7       [SeH]Cc1cc2c(cc1Br)OCO2           µM                 >              50
 8              N#CSc1nccc(Cl)n1           µM                 >             100
 9     O=C1c2ccccc2C(=O)N1C[SeH]           µM                 =            16.9
10              Cc1noc(C)c1CSC#N           µM                 =            21.9
11      N#CSCN1C(=O)c2ccccc2C1=O           µM                 >             100
12            [SeH]c1nc2ccccc2s1           µM                 >              50
13  N#C[Se]Cc1c2ccccc2nc2ccccc12           µM                 =              40
14        N#CSCc1cc2c(cc1Br)OCO2           µM                 =            74.2
15                CSc1ccnc(SC)n1           µM                 >             100
16       N#CSCc1ccc(-n2cccc2)cc1           µM                 =            88.1
17           SCc1cc2c(cc1Br)OCO2           µM                 >             100
18               Sc1ccc2ccccc2n1           µM                 >             100
19                  Sc1ccnc(S)n1           µM                 >             100
20     N#CSCc1c2ccccc2nc2ccccc12           µM                 =            28.3
21             N#CSc1nc2ccccc2s1           µM                 =            85.5
22         O=C1c2ccccc2C(=O)N1CS           µM                 >             100
23           C[Se]c1ccc2ccccc2n1           µM                 >             100
24              CSc1ccc2ccccc2n1           µM                 >             100
25    N#C[Se]Cc1ccc(-n2cccc2)cc1           µM                 >             100

* * *

Some compounds, each annotated with its measured GI50 at 72 h.
# PROTOCOL TEXT: Cytotoxicity against human 184B5 cells assessed as reduction in cell viability measured after 72 hrs by MTT assay
# Format: toxicity, cell-based
# TEST CONTEXT: 184B5 cells
PROPERTY: GI50 at 72 h (µM)

>>> df
                    mol_smiles      property  value_comparator  recorded_value
 0         Cc1noc(C)c1C[Se]C#N  GI50 at 72 h                 =               2
 1   O=C1c2ccccc2C(=O)N1C[SeH]  GI50 at 72 h                 =            12.7
 2   N#CSCc1c2ccccc2nc2ccccc12  GI50 at 72 h                 =            14.4
 3  N#C[Se]Cc1ccc(-n2cccc2)cc1  GI50 at 72 h                 >             100
 4            CSc1ccc2ccccc2n1  GI50 at 72 h                 >             100
 5          C[Se]c1nc2ccccc2s1  GI50 at 72 h                 >             100
 6                  C[Se](=O)O  GI50 at 72 h                 =             1.8
 7        [SeH]c1ccnc([SeH])n1  GI50 at 72 h                 =            10.7
 8     N#CSCc1ccc(-n2cccc2)cc1  GI50 at 72 h                 =            12.9
 9      N#CSCc1cc2c(cc1Br)OCO2  GI50 at 72 h                 >             100
10         SCc1cc2c(cc1Br)OCO2  GI50 at 72 h                 >             100
11            Cc1noc(C)c1CSC#N  GI50 at 72 h                 =            46.2

* * *

Some compounds, each annotated with its measured LC50.
# PROTOCOL TEXT: Cytotoxicity against human 184B5 cells assessed as reduction in cell viability measured after 72 hrs by MTT assay
# Assay type: toxicity, cell-based
# TEST CONTEXT: 184b5, 72 h
PROPERTY: LC50 (µM)

                    mol_smiles  property  value_comparator  recorded_value
 0          C[Se]c1nc2ccccc2s1      LC50                 >             100
 1                  C[Se](=O)O      LC50                 >             100
 2   O=C1c2ccccc2C(=O)N1C[SeH]      LC50                 =            21.9
 3         Cc1noc(C)c1C[Se]C#N      LC50                 =            22.8
 4     N#CSCc1ccc(-n2cccc2)cc1      LC50                 >             100
 5            CSc1ccc2ccccc2n1      LC50                 >             100
 6      N#CSCc1cc2c(cc1Br)OCO2      LC50                 >             100
 7            Cc1noc(C)c1CSC#N      LC50                 =            99.5
 8   N#CSCc1c2ccccc2nc2ccccc12      LC50                 =            38.5
 9        [SeH]c1ccnc([SeH])n1      LC50                 =            63.7
10  N#C[Se]Cc1ccc(-n2cccc2)cc1      LC50                 >             100
11         SCc1cc2c(cc1Br)OCO2      LC50                 >             100

Recorded values, source ChEMBL document CHEMBL3871268.
